Item-by-item account of CC50 at 48 h
- test_protocol: Cytotoxicity against human HuH7 cells after 2 days by XTT assay
- Type: cell-based, Huh-7

structure_string	CC50 at 48 h
Cc1cn([C@H]2CC=C(C(N)=O)O2)c(=O)[nH]c1=O	> 1060 µM
COC(=O)[C@H]1O[C@@H](n2cc(C)c(=O)[nH]c2=O)C[C@@H]1N=[N+]=[N-]	> 847 µM
COC(=O)[C@@H]1CC[C@H](n2ccc(=O)[nH]c2=O)O1	> 1040 µM
COC(=O)[C@H]1O[C@@H](n2cc(C)c(=O)[nH]c2=O)[C@H](F)[C@@H]1O	> 868 µM
Cc1cn([C@H]2C[C@H](N=[N+]=[N-])[C@@H](C(N)=O)O2)c(=O)[nH]c1=O	> 893 µM

All values here come from ChEMBL document CHEMBL3124855.
